Test system: Fasting induced lipolysis
procedure.details: Antilipolytic activity, fasting induced lipolysis (free fatty acids)
Type: in vivo
stated.conditions: 2 hours after 1·10^-3 mol/kg oral single dose; fasted for 24 hours
observable: free fatty acids (µEq/1)
Write the value in µEq/1 as a bare number.

Please review the following examples before continuing.
> print(dat)
                              smiles.record        observable  data.value
1                            O=C(O)c1cccnc1  free fatty acids         180
2  O=C(OCCSCCCCCCCCCCSCCOC(=O)c1cccnc1)c1cccnc1  free fatty acids         250
3  O=C(CNC(=O)c1cccnc1)OCCSCCCCCCCCCCSCCOC(=O)CNC(=O)c1cccnc1  free fatty acids         480

# free fatty acids lookup, item O=C(COC(=O)c1cccnc1)OCCSCCCCCCCCCCSCCOC(=O)COC(=O)c1cccnc1
207
